As shown below, each of these binders has a reported EC50; T-cell luciferase reporter assay with PC3pip target cells, 6 hr value.
- test-system: PSMA expressed on target cells (PC3pip cells, high density; 22Rv1 cells, low density) (UniProt Q04609 1-750, limits assumed)
- Sequence (Q04609 whole entry): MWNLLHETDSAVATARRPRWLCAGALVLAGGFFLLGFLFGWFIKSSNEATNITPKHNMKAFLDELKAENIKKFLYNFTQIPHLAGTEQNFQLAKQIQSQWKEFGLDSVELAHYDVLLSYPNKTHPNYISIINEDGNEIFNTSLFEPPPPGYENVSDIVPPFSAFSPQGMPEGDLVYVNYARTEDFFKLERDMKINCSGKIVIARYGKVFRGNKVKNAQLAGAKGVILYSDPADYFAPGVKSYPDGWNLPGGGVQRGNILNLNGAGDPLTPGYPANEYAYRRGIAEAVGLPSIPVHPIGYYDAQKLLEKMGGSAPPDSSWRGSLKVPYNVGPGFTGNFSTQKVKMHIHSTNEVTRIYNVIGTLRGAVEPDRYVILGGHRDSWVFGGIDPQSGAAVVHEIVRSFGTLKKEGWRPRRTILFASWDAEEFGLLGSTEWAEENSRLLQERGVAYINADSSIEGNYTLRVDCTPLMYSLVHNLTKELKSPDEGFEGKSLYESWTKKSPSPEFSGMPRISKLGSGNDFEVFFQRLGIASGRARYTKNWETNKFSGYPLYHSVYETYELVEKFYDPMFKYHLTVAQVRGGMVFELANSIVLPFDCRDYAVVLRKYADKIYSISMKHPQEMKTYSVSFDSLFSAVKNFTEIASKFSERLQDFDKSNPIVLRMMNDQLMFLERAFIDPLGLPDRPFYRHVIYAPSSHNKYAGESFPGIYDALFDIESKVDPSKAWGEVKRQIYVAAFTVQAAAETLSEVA
- protocol-details: cell-based or functional assay
Write it as a number; the unit nM goes unstated.

C29 (bispecific antibody) EVQLVESGGGLVQPGGSLRLSCVASGDVHKINFLGWYRQAPGKEREKVAHISIGDQTDYADSAKGRFTISRDESKNMVYLQMNSLKPEDTAVYFCRAFSRIYPYDYWGQGTLVTVSSGGGGSGGGGSGGGGSGGGGSQVQLQESGGGSVEAGGSLRLSCARSGWPYSTYSMNWFRQAPGKEREAVAGISSTMSGIIFAESKAGQFTISQDNAKNTVYLQMNNLKPEDTAIYYCAARRYFSLSSSSDDFDYWGQGTQVTVSSAAAYPYDVPDYGSSPSTPPTPSPSTPPHHHHHH: 5.98
C34 (bispecific antibody, FSY (fluorosulfonyltyrosine) at the position printed X in SEQ ID NO: 49 (position 101 of the anti-PSMA sdAb domain)) QVQLQESGGGSVEAGGSLRLSCARSGWPYSTYSMNWFRQAPGKEREAVAGISSTMSGIIFAESKAGQFTISQDNAKNTVYLQMNNLKPEDTAIYYCAARRXFSLSSSSDDFDYWGQGTQVTVSSGGGGSGGGGSGGGGSGGGGSEVQLVESGGGLVQPGGSLRLSCVASGDVHKINFLGWYRQAPGKEREKVAHISIGDQTDYADSAKGRFTISRDESKNMVYLQMNSLKPEDTAVYFCRAFSRIYPYDYWGQGTLVTVSSAAAYPYDVPDYGSSPSTPPTPSPSTPPHHHHHH: 1.42
C31 (bispecific antibody) QVQLQESGGGSVEAGGSLRLSCARSGWPYSTYSMNWFRQAPGKEREAVAGISSTMSGIIFAESKAGQFTISQDNAKNTVYLQMNNLKPEDTAIYYCAARRYFSLSSSSDDFDYWGQGTQVTVSSGGGGSGGGGSGGGGSGGGGSEVQLVESGGGPVQAGGSLRLSCAASGRTYRGYSMGWFRQAPGKEREFVAAIVWSGGNTYYEDSVKGRFTISRDNAKNTMYLQMTSLKPEDSATYYCAAKIRPYIFKIAGQYDYWGQGTLVTVSSAAAYPYDVPDYGSSPSTPPTPSPSTPPHHHHHH: 5.33
C32 (bispecific antibody) QVQLQESGGGSVEAGGSLRLSCARSGWPYSTYSMNWFRQAPGKEREAVAGISSTMSGIIFAESKAGQFTISQDNAKNTVYLQMNNLKPEDTAIYYCAARRYFSLSSSSDDFDYWGQGTQVTVSSGGGGSGGGGSGGGGSGGGGSEVQLVESGGGLVQPGGSLRLSCAASGDIYKSFDMGWYRQAPGKQRDLVAVIGSRGNNRGRTNYADSVKGRFTISRDGTGNTVYLLMNKLRPEDTAIYYCNTAPLVAGRPWGRGTLVTVSSAAAYPYDVPDYGSSPSTPPTPSPSTPPHHHHHH: 1.42
C30 (bispecific antibody, FSY (fluorosulfonyltyrosine) at the position printed X in SEQ ID NO: 45 (position 101 of the anti-PSMA sdAb domain)) EVQLVESGGGLVQPGGSLRLSCVASGDVHKINFLGWYRQAPGKEREKVAHISIGDQTDYADSAKGRFTISRDESKNMVYLQMNSLKPEDTAVYFCRAFSRIYPYDYWGQGTLVTVSSGGGGSGGGGSGGGGSGGGGSQVQLQESGGGSVEAGGSLRLSCARSGWPYSTYSMNWFRQAPGKEREAVAGISSTMSGIIFAESKAGQFTISQDNAKNTVYLQMNNLKPEDTAIYYCAARRXFSLSSSSDDFDYWGQGTQVTVSSAAAYPYDVPDYGSSPSTPPTPSPSTPPHHHHHH: 0.51

Task: Could you tell me which EC50; T-cell luciferase reporter assay with PC3pip target cells, 6 hr is on file for C27 (bispecific antibody, FSY (fluorosulfonyltyrosine) at the position printed X in SEQ ID NO: 42 (position 101 of the anti-PSMA sdAb domain)) EVQLVESGGGPVQAGGSLRLSCAASGRTYRGYSMGWFRQAPGKEREFVAAIVWSGGNTYYEDSVKGRFTISRDNAKNTMYLQMTSLKPEDSATYYCAAKIRPYIFKIAGQYDYWGQGTLVTVSSGGGGSGGGGSGGGGSGGGGSQVQLQESGGGSVEAGGSLRLSCARSGWPYSTYSMNWFRQAPGKEREAVAGISSTMSGIIFAESKAGQFTISQDNAKNTVYLQMNNLKPEDTAIYYCAARRXFSLSSSSDDFDYWGQGTQVTVSSAAAYPYDVPDYGSSPSTPPTPSPSTPPHHHHHH ?
Result: 0.59

Task: Thanks! And C28 (bispecific antibody) EVQLVESGGGLVQPGGSLRLSCAASGDIYKSFDMGWYRQAPGKQRDLVAVIGSRGNNRGRTNYADSVKGRFTISRDGTGNTVYLLMNKLRPEDTAIYYCNTAPLVAGRPWGRGTLVTVSSGGGGSGGGGSGGGGSGGGGSQVQLQESGGGSVEAGGSLRLSCARSGWPYSTYSMNWFRQAPGKEREAVAGISSTMSGIIFAESKAGQFTISQDNAKNTVYLQMNNLKPEDTAIYYCAARRYFSLSSSSDDFDYWGQGTQVTVSSAAAYPYDVPDYGSSPSTPPTPSPSTPPHHHHHH ?
Result: 14.8

Task: Thanks! And C33 (bispecific antibody) QVQLQESGGGSVEAGGSLRLSCARSGWPYSTYSMNWFRQAPGKEREAVAGISSTMSGIIFAESKAGQFTISQDNAKNTVYLQMNNLKPEDTAIYYCAARRYFSLSSSSDDFDYWGQGTQVTVSSGGGGSGGGGSGGGGSGGGGSEVQLVESGGGLVQPGGSLRLSCVASGDVHKINFLGWYRQAPGKEREKVAHISIGDQTDYADSAKGRFTISRDESKNMVYLQMNSLKPEDTAVYFCRAFSRIYPYDYWGQGTLVTVSSAAAYPYDVPDYGSSPSTPPTPSPSTPPHHHHHH ?
Result: 31.1

Task: Thanks! And C26 (bispecific antibody) EVQLVESGGGPVQAGGSLRLSCAASGRTYRGYSMGWFRQAPGKEREFVAAIVWSGGNTYYEDSVKGRFTISRDNAKNTMYLQMTSLKPEDSATYYCAAKIRPYIFKIAGQYDYWGQGTLVTVSSGGGGSGGGGSGGGGSGGGGSQVQLQESGGGSVEAGGSLRLSCARSGWPYSTYSMNWFRQAPGKEREAVAGISSTMSGIIFAESKAGQFTISQDNAKNTVYLQMNNLKPEDTAIYYCAARRYFSLSSSSDDFDYWGQGTQVTVSSAAAYPYDVPDYGSSPSTPPTPSPSTPPHHHHHH ?
Result: 7.4

All figures here come from patent US20250353926A1.
